# TEST TARGET: Cytochrome P450 3A4 (Homo sapiens)
# Sequence (P08684 whole entry): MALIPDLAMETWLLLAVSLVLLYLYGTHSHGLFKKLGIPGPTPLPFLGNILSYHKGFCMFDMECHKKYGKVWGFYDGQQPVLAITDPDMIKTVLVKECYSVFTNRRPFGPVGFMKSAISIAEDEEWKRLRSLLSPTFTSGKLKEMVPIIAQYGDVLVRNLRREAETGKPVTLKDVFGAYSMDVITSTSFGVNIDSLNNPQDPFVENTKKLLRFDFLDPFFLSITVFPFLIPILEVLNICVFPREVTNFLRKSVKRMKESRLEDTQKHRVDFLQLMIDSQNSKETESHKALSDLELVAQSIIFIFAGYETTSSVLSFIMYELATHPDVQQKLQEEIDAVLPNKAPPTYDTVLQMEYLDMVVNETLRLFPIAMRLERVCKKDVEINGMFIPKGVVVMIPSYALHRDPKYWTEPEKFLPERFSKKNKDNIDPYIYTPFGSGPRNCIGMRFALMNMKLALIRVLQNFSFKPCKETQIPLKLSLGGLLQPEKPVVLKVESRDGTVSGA
pIC50: −log10 of the molar value.
ENDPOINT: pIC50

Output reported pIC50 of the molecule COc1ccc2ncc(F)c(CC[C@@]3(O)CO[C@@H]4[C@@H](NCc5cc6c(cn5)OCCO6)CO[C@@H]43)c2n1 on Cytochrome P450 3A4 (Homo sapiens).
< 5.00

###

# TEST TARGET: CYP2B6 (Homo sapiens, UniProt P20813)
# Sequence (P20813 whole entry): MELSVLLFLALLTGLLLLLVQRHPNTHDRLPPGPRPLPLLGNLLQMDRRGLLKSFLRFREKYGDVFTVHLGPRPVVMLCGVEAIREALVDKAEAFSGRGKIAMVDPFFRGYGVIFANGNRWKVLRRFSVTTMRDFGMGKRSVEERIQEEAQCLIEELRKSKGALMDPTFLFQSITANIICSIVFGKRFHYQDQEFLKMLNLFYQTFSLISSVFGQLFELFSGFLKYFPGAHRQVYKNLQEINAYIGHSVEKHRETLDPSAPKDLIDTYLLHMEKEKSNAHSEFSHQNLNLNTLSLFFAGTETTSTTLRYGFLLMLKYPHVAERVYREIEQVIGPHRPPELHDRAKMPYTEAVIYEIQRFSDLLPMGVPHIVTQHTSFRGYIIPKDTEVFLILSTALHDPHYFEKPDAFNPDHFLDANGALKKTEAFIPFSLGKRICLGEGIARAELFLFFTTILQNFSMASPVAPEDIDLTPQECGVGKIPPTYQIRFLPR
# PROCEDURE TEXT: Inhibition of human liver microsome CYP2B6 at 10 uM in presence of NADPH incubated for 10 to 30 mins by LC-MS-MS analysis
# Format: ADME
# CONDITION PARAMETERS: human liver microsomes, time 10-30 min
ENDPOINT: inhibition at 10 µM

Look up inhibition at 10 µM of COc1ccc2ncc(F)c(CC[C@@]3(O)CO[C@@H]4[C@@H](NCc5cc6c(cn5)OCCO6)CO[C@@H]43)c2n1 and report it.
< 50%

###

# TEST TARGET: KCNQ1 (Homo sapiens, UniProt P51787)
# Sequence (P51787 whole entry): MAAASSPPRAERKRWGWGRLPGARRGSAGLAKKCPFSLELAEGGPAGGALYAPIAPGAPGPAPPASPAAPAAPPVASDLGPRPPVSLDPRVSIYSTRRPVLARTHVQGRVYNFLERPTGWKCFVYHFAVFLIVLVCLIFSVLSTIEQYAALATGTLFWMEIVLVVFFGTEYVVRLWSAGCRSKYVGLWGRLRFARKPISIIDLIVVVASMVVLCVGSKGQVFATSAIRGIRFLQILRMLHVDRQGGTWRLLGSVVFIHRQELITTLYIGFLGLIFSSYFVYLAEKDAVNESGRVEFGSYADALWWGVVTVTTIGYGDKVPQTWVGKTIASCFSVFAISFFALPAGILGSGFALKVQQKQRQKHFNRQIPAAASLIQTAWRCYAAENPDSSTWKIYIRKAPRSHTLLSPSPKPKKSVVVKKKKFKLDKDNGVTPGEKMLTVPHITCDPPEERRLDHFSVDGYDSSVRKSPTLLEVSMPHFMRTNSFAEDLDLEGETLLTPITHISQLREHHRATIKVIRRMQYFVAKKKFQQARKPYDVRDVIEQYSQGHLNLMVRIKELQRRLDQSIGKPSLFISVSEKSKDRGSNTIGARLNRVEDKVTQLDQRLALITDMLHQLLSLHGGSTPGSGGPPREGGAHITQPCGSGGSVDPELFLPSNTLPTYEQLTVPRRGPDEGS
# PROCEDURE TEXT: Inhibition of recombinant human KCNQ1 expressed in CHO-K1 cells at 3 uM by automated Qpatch clamp assay relative to control
# Type: ADME, cell-based
# CONDITION PARAMETERS: CHO-K1 cells expressing recombinant human KCNQ1
ENDPOINT: inhibition at 3 µM (%)
I only need the number, in %, no unit after it.

Look up inhibition at 3 µM of COc1ccc2ncc(F)c(CC[C@@]3(O)CO[C@@H]4[C@@H](NCc5cc6c(cn5)OCCO6)CO[C@@H]43)c2n1 and report it.
-2.9

###

# TEST TARGET: Voltage-gated inwardly rectifying potassium channel KCNH2 (Homo sapiens)
# Sequence (Q12809 whole entry): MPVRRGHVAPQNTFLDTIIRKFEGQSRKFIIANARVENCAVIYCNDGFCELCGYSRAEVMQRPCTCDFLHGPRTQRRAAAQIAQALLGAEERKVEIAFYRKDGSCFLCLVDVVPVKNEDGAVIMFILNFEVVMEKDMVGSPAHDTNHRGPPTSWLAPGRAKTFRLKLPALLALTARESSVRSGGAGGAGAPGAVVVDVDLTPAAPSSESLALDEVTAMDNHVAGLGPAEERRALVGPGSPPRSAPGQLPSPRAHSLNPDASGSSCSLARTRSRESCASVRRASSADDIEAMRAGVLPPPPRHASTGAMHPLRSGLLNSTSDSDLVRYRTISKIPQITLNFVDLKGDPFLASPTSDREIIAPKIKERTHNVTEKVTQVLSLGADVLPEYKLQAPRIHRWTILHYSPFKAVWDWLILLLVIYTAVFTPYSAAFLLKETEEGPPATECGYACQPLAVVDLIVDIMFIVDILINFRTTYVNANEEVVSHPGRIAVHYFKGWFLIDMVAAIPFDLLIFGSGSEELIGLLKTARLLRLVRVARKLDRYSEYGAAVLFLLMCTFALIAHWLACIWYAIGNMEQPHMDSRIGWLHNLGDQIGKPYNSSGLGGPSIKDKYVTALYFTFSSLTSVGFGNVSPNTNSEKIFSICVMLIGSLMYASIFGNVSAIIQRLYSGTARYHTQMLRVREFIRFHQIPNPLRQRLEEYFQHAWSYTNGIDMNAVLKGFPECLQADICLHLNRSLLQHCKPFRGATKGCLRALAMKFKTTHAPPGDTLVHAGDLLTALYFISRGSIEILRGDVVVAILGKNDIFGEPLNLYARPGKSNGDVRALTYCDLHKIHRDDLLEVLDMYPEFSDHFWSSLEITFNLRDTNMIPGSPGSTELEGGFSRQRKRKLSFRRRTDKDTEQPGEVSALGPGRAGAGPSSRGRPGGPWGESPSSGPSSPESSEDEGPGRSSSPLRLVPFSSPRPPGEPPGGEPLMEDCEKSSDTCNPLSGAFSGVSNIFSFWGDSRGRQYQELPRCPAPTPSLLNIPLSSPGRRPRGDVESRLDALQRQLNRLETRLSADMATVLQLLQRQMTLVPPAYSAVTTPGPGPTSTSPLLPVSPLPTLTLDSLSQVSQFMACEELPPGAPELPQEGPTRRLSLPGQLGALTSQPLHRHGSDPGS
ENDPOINT: IC50 (µM)
I only need the number, in µM, no unit after it.

Here are 3 compounds together with their reported answers.
COc1ccc2ncc(F)c(CC[C@]3(O)CC[C@H](NCc4ccc5c(c4)OCCO5)CC3)c2n1 ... 2.3
COc1ccc2ncc(F)c(CC[C@H]3OC[C@H](NCc4ccc5c(c4)OCCO5)CO3)c2n1 ... 8
COc1ccc2ncc(F)c(CC[C@@]3(O)CO[C@@H]4[C@@H](NCc5cc6c(cn5)OCCO6)CO[C@@H]43)c2n1 ... 66

Output reported IC50 of the compound COc1ccc2ncc(F)c(CC[C@]3(O)CC[C@H](NCc4ccc(Cl)c(Cl)c4)CC3)c2n1 on Voltage-gated inwardly rectifying potassium channel KCNH2 (Homo sapiens).
3.8

###

# PROCEDURE TEXT: Cytotoxicity against human HepaRG assessed as reduction in cell viability at 100 uM incubated for 24 hrs by Cell-Titer Glo assay
# Format: cell-based
# CONDITION PARAMETERS: HepaRG cells, read-out: INH
ENDPOINT: cytotoxicity at 24 h, 100 µM (%)
I only need the number, in %, no unit after it.

Look up cytotoxicity at 24 h, 100 µM of COc1ccc2ncc(F)c(CC[C@@]3(O)CO[C@@H]4[C@@H](NCc5cc6c(cn5)OCCO6)CO[C@@H]43)c2n1 and report it.
14

###

# TEST TARGET: CYP2D6 (Homo sapiens)
# Sequence (P10635 whole entry): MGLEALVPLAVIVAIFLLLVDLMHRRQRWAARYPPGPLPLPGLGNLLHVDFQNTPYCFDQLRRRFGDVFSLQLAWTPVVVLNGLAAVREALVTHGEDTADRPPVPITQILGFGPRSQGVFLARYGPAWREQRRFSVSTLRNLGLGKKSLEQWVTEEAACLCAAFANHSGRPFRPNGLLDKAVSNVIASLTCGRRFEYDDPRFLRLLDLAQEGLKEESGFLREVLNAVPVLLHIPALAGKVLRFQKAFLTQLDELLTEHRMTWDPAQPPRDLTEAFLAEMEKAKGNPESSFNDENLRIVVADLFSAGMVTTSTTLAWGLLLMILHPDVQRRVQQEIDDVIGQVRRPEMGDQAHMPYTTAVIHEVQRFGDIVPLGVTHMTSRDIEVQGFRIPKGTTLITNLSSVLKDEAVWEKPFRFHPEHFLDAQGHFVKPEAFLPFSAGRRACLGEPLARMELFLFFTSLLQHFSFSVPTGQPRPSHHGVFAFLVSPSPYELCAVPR
# PROCEDURE TEXT: Inhibition of human liver microsome CYP2D6 at 10 uM in presence of NADPH incubated for 10 to 30 mins by LC-MS-MS analysis
# Format: ADME
# CONDITION PARAMETERS: human liver microsomes, time 10-30 min
ENDPOINT: inhibition at 10 µM

Look up inhibition at 10 µM of COc1ccc2ncc(F)c(CC[C@@]3(O)CO[C@@H]4[C@@H](NCc5cc6c(cn5)OCCO6)CO[C@@H]43)c2n1 and report it.
< 50%

###

# TEST TARGET: Nav1.5 (late current) (Homo sapiens)
# Sequence (Q14524 whole entry): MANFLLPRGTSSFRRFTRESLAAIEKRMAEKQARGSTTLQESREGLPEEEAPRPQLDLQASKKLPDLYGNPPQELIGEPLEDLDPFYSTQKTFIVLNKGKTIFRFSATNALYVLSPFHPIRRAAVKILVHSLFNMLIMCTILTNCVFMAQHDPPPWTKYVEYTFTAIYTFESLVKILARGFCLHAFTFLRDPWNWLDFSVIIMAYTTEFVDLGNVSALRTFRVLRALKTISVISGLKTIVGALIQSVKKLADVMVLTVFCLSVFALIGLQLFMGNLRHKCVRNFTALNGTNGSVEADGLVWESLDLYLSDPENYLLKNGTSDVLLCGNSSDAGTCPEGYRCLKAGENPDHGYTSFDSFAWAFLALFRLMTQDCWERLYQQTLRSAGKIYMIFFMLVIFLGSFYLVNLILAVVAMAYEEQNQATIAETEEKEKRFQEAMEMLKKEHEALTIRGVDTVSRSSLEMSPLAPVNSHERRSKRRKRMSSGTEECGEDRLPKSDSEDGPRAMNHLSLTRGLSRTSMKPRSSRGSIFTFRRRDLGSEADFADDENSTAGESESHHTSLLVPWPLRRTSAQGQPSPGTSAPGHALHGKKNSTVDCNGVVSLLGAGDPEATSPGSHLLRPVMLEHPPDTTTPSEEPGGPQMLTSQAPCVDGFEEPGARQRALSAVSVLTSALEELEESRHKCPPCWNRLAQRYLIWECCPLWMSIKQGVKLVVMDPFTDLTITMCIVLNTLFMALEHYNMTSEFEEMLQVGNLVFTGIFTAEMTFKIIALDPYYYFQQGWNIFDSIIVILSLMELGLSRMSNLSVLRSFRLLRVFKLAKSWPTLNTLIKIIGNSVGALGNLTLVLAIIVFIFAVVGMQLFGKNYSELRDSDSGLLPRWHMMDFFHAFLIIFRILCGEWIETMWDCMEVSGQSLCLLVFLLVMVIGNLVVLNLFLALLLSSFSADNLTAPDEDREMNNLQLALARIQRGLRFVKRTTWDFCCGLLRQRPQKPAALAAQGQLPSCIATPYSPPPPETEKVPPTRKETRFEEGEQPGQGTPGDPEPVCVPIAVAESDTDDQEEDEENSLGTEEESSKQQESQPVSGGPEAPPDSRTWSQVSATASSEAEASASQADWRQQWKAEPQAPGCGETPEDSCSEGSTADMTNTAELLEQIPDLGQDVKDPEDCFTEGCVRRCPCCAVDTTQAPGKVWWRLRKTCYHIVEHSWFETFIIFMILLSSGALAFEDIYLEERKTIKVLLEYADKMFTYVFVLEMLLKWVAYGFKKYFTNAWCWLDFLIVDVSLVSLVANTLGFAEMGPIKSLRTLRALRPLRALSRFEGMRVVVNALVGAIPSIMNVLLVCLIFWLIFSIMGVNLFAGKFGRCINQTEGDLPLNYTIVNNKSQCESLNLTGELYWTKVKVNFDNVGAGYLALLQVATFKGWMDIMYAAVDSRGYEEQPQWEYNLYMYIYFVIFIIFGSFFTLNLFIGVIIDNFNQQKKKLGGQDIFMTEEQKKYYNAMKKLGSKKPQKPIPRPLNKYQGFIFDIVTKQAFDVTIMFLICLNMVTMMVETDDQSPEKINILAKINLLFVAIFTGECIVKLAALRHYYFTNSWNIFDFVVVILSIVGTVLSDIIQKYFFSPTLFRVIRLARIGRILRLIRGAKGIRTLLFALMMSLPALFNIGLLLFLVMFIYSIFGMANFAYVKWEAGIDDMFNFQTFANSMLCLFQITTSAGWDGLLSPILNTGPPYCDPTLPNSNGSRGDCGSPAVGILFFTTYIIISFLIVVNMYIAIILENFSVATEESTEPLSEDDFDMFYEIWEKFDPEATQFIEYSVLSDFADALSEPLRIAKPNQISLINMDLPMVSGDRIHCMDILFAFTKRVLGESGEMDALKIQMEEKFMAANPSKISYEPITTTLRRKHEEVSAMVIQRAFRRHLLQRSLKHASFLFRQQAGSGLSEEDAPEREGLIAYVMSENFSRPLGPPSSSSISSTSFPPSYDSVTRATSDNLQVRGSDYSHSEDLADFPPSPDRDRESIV
# PROCEDURE TEXT: Inhibition of recombinant human Nav1.5 late expressed in human HEK293 cells at 100 uM in presence of ATXII by automated Qpatch clamp assay relative to control
# Type: ADME, cell-based
# CONDITION PARAMETERS: HEK293 cells expressing recombinant human Nav1.5
ENDPOINT: inhibition at 100 µM (%)
I only need the number, in %, no unit after it.

Output reported inhibition at 100 µM of the molecule COc1ccc2ncc(F)c(CC[C@@]3(O)CO[C@@H]4[C@@H](NCc5cc6c(cn5)OCCO6)CO[C@@H]43)c2n1 on Nav1.5 (late current) (Homo sapiens).
50.9

###

# PROCEDURE TEXT: Cytotoxicity against human HepaRG assessed as reduction in cell viability at 0.01 uM incubated for 24 hrs by Cell-Titer Glo assay
# Assay type: cell-based
# CONDITION PARAMETERS: HepaRG cells, read-out: INH
ENDPOINT: cytotoxicity at 24 h, 0.01 µM (%)
I only need the number, in %, no unit after it.

Look up cytotoxicity at 24 h, 0.01 µM of COc1ccc2ncc(F)c(CC[C@@]3(O)CO[C@@H]4[C@@H](NCc5cc6c(cn5)OCCO6)CO[C@@H]43)c2n1 and report it.
6
